Source: the supplement of paper PMC9116672

assay-summary: duplex melting temperature (HRM, EvaGreen); higher = more stable duplex
condition-description: duplex concentration 10 µM; backbone: PS-PO (listed strand fully phosphorothioate, complement phosphodiester)
quantity-name: duplex melting temperature (°C)
Give bare numbers, in °C.

Here's what some known entries look like.
>  <sequence>
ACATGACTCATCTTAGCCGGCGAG

>  <duplex melting temperature [°C]>
75

$$$$
>  <sequence>
GATGCCGCAGCGACCTG

>  <duplex melting temperature [°C]>
74.4

$$$$
>  <sequence>
GGTTGCGGTGGCCAAC

>  <duplex melting temperature [°C]>
60.6

$$$$

For every record below, what is its duplex melting temperature?
1. GCTGTGAAACAATGTAG
2. CTTTTGTGCGGGTAGC
3. CGCGCGAGTATTTATAACCT
4. CCCAGGCCTCGGATTTA
5. CTCGGAGGCCCCATTTA
6. CCGTTGCTGCTAGG
7. GTGGTACAAATGCGACC
8. CGGTGCTTTTGGTAGC

1: 59.2; 2: 63.9; 3: 67.1; 4: 68.8; 5: 68.7; 6: 63.9; 7: 65; 8: 62.1

For every record below, what is its duplex melting temperature?
1. GAGGCAGCCGCGACCTG
2. GAGCAGAAGGGGTTGT
3. CTAAACTGTTATAGCCGG

76.9
65.3
62.5

For every record below, what is its duplex melting temperature?
1. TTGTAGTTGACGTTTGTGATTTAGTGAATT
2. ACTCGCTCTACCTTAAT
3. AATGTCGAACAGCAATT

69.6
59.9
63.5
